system.name: T1, recombinant human FGF23 (R179Q) (human, UniProt Q9GZV9 25-251)
T1 construct: also called rhFGF23(R179Q); hFGF23(R179Q)
T1 sequence (looked up): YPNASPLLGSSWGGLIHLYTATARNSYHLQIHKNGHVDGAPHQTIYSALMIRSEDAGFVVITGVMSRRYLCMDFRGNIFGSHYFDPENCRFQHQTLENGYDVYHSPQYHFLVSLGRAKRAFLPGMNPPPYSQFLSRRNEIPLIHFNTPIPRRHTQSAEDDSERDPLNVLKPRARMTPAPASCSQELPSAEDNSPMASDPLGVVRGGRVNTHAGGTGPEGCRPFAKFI
assay.notes: SPR, antibody captured on hIgG chip, rhFGF23(R179Q) analyte
parameter: Ratio (variant antibody KD/burosumab KD)
Lab note: record the figure alone, no unit after it.

Study these solved cases before continuing.
{"binder": "UGX161 (antibody, human IgG1, kappa, V domains shown, also called HC:S59I) VH: QVQLVQSGAEVKKPGASVKVSCKASGYTFTNHYMHWVRQAPGQGLEWMGIINPISGSTINAQKFQGRVTMTRDTSTSTVYMELSSLRSEDTAVYYCARDIVDAFDFWGQGTMVTVSS VL: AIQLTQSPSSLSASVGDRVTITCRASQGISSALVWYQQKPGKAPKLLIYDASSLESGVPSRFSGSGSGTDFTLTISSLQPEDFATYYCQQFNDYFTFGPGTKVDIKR", "Ratio (variant antibody KD/burosumab KD)": 0}
{"binder": "UGX148 (antibody, human IgG1, kappa, V domains shown, also called HC:T30F) VH: QVQLVQSGAEVKKPGASVKVSCKASGYTFFNHYMHWVRQAPGQGLEWMGIINPISGSTSNAQKFQGRVTMTRDTSTSTVYMELSSLRSEDTAVYYCARDIVDAFDFWGQGTMVTVSS VL: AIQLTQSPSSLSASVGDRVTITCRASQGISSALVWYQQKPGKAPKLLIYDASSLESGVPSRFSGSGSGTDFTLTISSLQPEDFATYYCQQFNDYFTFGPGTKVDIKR", "Ratio (variant antibody KD/burosumab KD)": 1}
{"binder": "UGX139 (antibody, human IgG1, kappa, V domains shown, also called UGX038; LC:N92Y) VH: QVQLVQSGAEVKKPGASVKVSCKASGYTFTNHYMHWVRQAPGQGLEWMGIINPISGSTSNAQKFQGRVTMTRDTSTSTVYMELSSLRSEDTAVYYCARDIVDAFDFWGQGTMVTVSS VL: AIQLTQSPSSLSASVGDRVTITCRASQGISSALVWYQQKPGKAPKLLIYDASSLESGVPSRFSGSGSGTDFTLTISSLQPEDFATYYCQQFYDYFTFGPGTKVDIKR", "Ratio (variant antibody KD/burosumab KD)": 1}

For this binder ( UGX203 (antibody, human IgG1, kappa, V domains shown, also called HC:S59E, LC:S52D; S59E/S52D) VH: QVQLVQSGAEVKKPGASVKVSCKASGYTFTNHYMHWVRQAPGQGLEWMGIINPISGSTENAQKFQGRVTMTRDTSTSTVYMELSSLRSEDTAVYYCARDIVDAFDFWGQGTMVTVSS VL: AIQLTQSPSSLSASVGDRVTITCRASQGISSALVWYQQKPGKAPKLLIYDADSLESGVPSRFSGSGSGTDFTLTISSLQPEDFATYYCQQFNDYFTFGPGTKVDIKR ), measured Ratio (variant antibody KD/burosumab KD) is 2

For this binder ( UGX137 (antibody, human IgG1, kappa, V domains shown, also called UGX035; LC:N92F) VH: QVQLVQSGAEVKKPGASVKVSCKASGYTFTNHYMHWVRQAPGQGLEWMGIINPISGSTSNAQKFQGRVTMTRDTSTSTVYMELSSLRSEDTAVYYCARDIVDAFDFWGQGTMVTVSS VL: AIQLTQSPSSLSASVGDRVTITCRASQGISSALVWYQQKPGKAPKLLIYDASSLESGVPSRFSGSGSGTDFTLTISSLQPEDFATYYCQQFFDYFTFGPGTKVDIKR ), measured Ratio (variant antibody KD/burosumab KD) is 1

Source: patent US20260250371A1
